- ASSAYED_SYSTEM: B-Raf (V600E)-kinase (Homo sapiens (Human), UniProt P15056, V600E)
- Sequence (P15056 whole entry V600E): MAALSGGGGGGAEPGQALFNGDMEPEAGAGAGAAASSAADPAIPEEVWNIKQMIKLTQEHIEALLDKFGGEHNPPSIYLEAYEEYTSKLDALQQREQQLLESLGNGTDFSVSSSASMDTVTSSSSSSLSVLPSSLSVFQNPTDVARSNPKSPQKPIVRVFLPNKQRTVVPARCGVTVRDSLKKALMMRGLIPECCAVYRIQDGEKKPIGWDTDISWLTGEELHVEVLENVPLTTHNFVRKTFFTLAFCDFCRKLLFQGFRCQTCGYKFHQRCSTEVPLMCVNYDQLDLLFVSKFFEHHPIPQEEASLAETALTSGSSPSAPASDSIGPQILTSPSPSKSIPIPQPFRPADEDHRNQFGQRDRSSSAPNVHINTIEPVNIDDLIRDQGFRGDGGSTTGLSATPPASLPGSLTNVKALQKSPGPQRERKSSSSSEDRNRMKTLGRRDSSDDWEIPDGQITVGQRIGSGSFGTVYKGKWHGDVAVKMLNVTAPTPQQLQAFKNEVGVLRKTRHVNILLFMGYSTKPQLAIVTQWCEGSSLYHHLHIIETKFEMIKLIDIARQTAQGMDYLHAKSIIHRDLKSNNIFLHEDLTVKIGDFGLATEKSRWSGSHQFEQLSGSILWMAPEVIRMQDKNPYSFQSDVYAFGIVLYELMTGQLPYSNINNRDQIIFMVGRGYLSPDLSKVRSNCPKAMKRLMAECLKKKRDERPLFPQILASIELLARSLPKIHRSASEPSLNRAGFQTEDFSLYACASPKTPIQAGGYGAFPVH
- PROTOCOL: Kinase test B-RAF (V600E)
- Type: biochemical
- ASSAY_CONDITIONS: B-RAF (V600E) kinase test, 250 μM ATP
READOUT: IC50 (nM)

molecule=Cc1ccc(C(=O)Nc2cc(C(F)(F)F)ccn2)cc1Nc1ncnc2cnc(N3CCN(CC(C)C)CC3)nc12 result_unit=nM number=3
molecule=COCCN1CCN(c2ncc3ncnc(Nc4cc(C(=O)Nc5cc(C(C)(C)C)ccc5OC)ccc4C)c3n2)CC1 result_unit=nM number=5

I: Cc1ccc(C(=O)Nc2ccnc(C(C)(C)C)c2)cc1Nc1ncnc2cnc(NC3CCN(C)CC3)nc12
II: Cc1ccc(C(=O)Nc2cc(N3C[C@@H](C)N[C@@H](C)C3)cc(C(F)(F)F)c2)cc1Nc1ncnc2cnc(N3CCOCC3)nc12
# input # min-compare on IC50 between I and II Write down the label attached to your selection.
# output I

a: Cc1ccc(C(=O)Nc2cc(C(C)(C)C)n[nH]2)cc1Nc1ncnc2c(N)nc(N3CCN(CC4CCCN(C)C4)CC3)nc12 (stereo not shown)
b: COc1ccc(NC(=O)c2ccc(C(F)(F)F)c(Nc3ncnc4cnc(N5CCCC5)nc34)c2)cc1C(F)(F)F
# input // which entry reports the smaller IC50, a or b ? Lab note: record the label of whichever item you select.
# output a

----------
- ASSAYED_SYSTEM: B-Raf (V600E)-kinase (Homo sapiens (Human), UniProt P15056, V600E)
- PROTOCOL: Kinase test B-RAF (V600E)
- Assay type: biochemical
- ASSAY_CONDITIONS: B-RAF (V600E) kinase test, 250 μM ATP
READOUT: IC50 (nM)

Example results:
molecule=Cc1ccc(NC(=O)c2cccc(C(F)(F)F)c2)cc1Nc1ncnc2c(N)nc(N3CCCNCC3)nc12 number=20
molecule=COc1ccc(NC(=O)c2ccc(F)c(Nc3ncnc4cnc(N5CCN(C)CC5)nc34)c2)cc1C(F)(F)F number=2
molecule=COc1ccc(C(=O)Nc2ccc(OC)c(C(F)(F)F)c2)cc1Nc1ncnc2cnc(N(C)CCN(C)C)nc12 number=4
molecule=Cc1ccc(C(=O)Nc2ccc(C(F)(F)F)cc2)cc1Nc1ncnc2c(N)nc(N3CCN(C)CC3)nc12 number=5
molecule="CN1CCC(N(C)c2ncc3ncnc(Nc4cc(C(=O)Nc5cc(C(C)(C)C)on5)ccc4F)c3n2)C1 (centres unmarked)" number=4

a: Cc1ccc(NS(C)(=O)=O)cc1Nc1ncnc2cnc(N3CCN(C)CC3)nc12
b: Cc1ccc(C(=O)Nc2ccnc(C(C)(C)C)c2)cc1Nc1ncnc2cnc(N(C)C3CC(N4CCN(C)CC4)C3)nc12 (centres unmarked)
c: Cc1ccc(C(=O)Nc2cccc(S(=O)(=O)N(C)C)c2)cc1Nc1ncnc2cnc(N3CCCCC3)nc12
# input Sort the molecules on IC50; start with the lowest figure. // rank by listing labels in the order requested
# output b, c, a

----------
- ASSAYED_SYSTEM: B-Raf (V600E)-kinase (Homo sapiens (Human), UniProt P15056, V600E)
- PROTOCOL: Kinase test B-RAF (V600E)
- Type: biochemical
- ASSAY_CONDITIONS: B-RAF (V600E) kinase test, 250 μM ATP
pIC50: −log10 of the molar value.
READOUT: pIC50

A selection of reference data follows.
compound="Cc1ccc(C(=O)Nc2cccc(S(=O)(=O)N(C)C)c2)cc1Nc1ncnc2cnc(N3CCCN(C)CC3)nc12 [III-251]" assayed_system="B-Raf (V600E)-kinase (Homo sapiens (Human), UniProt P15056, V600E)" readout=pIC50 number=7.72
compound="COc1ccc(NC(=O)c2ccc(C)c(Nc3ncnc4cnc(N5CCC(CN(C)C)CC5)nc34)c2)cc1C(F)(F)F [III-599]" assayed_system="B-Raf (V600E)-kinase (Homo sapiens (Human), UniProt P15056, V600E)" readout=pIC50 number=9.00
compound="CC(C)(C)c1cc(NC(=O)c2ccc(Cl)c(Nc3ncnc4cnc(N5CCCCCC5)nc34)c2)no1 [III-68]" assayed_system="B-Raf (V600E)-kinase (Homo sapiens (Human), UniProt P15056, V600E)" readout=pIC50 number=8.10
compound="COc1ccc(C(C)(C)C)cc1NC(=O)c1ccc(C)c(Nc2ncnc3cnc(N4CCN(C)CC4)nc23)c1 [III-230]" assayed_system="B-Raf (V600E)-kinase (Homo sapiens (Human), UniProt P15056, V600E)" readout=pIC50 number=8.22
compound="Cc1ccc(C(=O)Nc2cc(C(C)(C)C)on2)cc1Nc1ncnc2c(N)nc(N3CCN(C4CCN(C)CC4)CC3)nc12 [I-10]" assayed_system="B-Raf (V600E)-kinase (Homo sapiens (Human), UniProt P15056, V600E)" readout=pIC50 number=9.00

A: Cc1cc(C(=O)Nc2cc(C(C)(C)C)nn2C)cc(Nc2ncnc3cnc(N4CCOCC4)nc23)c1C [III-372]
B: COc1ccc(NC(=O)c2ccc(C)c(Nc3ncnc4cnc(N(C)CC5CCCCO5)nc34)c2)cc1C(F)(F)F (stereo not shown) [III-409]
C: Cc1ccc(C(=O)Nc2cc(C(F)(F)F)ccn2)cc1Nc1ncnc2c(N)nc(N3CCN(C)CC3)nc12 [I-73]
D: CN1CCN(c2nc(N)c3ncnc(Nc4ccc(F)c(C(=O)Nc5cc(C(C)(C)C)n[nH]5)c4)c3n2)CC1 [I-82]
# input Rank the items in ascending order with respect to pIC50. Output the labels ranked as instructed.
# output D, B, A, C

a: Cc1ccc(C(=O)Nc2cc(C(C)(C)C)on2)cc1Nc1ncnc2cnc(N3CCN(CC4CCOC4)CC3)nc12 (stereo not shown) [III-482]
b: COc1ccc(C(=O)Nc2ccc(OC)c(C(F)(F)F)c2)cc1Nc1ncnc2cnc(N3CCCC3)nc12 [III-26]
c: Cc1ccc(C(=O)Nc2cc(C(C)(C)C)nn2C)cc1Nc1ncnc2cnc(NCc3ccccc3)nc12 [III-429]
# input Form: Sort by [pIC50] Order [ ascending ] Ranked list of labels, please, in the requested order.
# output b, a, c
